Data credit: PubChem BioAssay AID449750

assayProtocol: non-covalent RecA intein splicing inhibitors, dose response, biochemical, cell-free, fluorescence, secondary screen (AID 449750)
The source made the active and inactive calls. The rule behind the calls is not given here.
In this exercise, the only acceptable responses are Yes (active), No (inactive)

Tell me the recorded outcome of this test for `CCn1c(-c2ccccc2)c(C(=O)CCl)c2ccccc21` . Yes

Then `CCc1[nH]nc2c1C1(CCN(C(=O)c3ccccc3)CC1)C(C#N)=C(N)O2` ? Yes

Likewise for `CC(C)(C)c1cc[n+](C2=C([O-])c3ccccc3C(=O)/C2=N\S(=O)(=O)c2ccccc2)cc1` ? Yes

And the next one, CN1c2ccccc2C(C)(C)C12C=Nc1c(cc(N3CCOCC3)c3ccccc13)O2 (stereo not given) ? No

Entry COC1(OC)C(/C=C/c2ccc(C)cc2)C(C#N)(C#N)C1(OC)OC (stereo not given) please No

Request: `c1ccc(-c2nnc(-c3ccccn3)nc2NC2CCCCC2)cc1` Yes

Request: `Cc1cccc(CN2CCN(C(=O)CCl)CC2)c1` Yes

What would you report for CCCc1[nH]nc2c1C(c1ccoc1)C(C#N)=C(N)O2 (stereo not given) ? No

Try this compound too: COc1ccccc1C1C(C#N)=C(N)Oc2c1c(-c1ccccc1)nn2-c1ccccc1 (stereo not given) Yes

And CC(=O)Oc1cc2c(cc1Cl)C1(CC(c3ccccc3Cl)O2)CC(C)(C)NC(=S)N1 (stereo not given) ? Yes
